- Test system: MOLT-4 leukemia
- assay_details: NCI tumour cell line growth inhibition, 48 h
observation_type: TGI

molecule=O=S(=O)(NC1CCCCC1)c1ccc2c(c1)OCCOCCOCCOCCO2 result="> 100 µM"
molecule=NCCCN(CCCCN(CCCN)C(=O)OCc1ccccc1)C(=O)OCc1ccccc1 result="> 100 µM"
molecule="COC(=O)C1=C(OC(=O)/C(=C/c2ccccc2)c2ccc(OC)cc2)C(C(=O)OC)[C@@]2(O)[C@@H](C(=O)OC)[C@H](C)C[C@@H]1[C@@H]2C(=O)OC (stereo partly drawn)" result="> 100 µM"
molecule="CCOC(=O)C1CC(C(=O)c2ccccc2)N2c3ccccc3-c3ccccc3C12 (stereo not drawn)" result="> 100 µM"
molecule="NC(Cc1ccc(OCc2ccccc2)cc1)C(=O)NC(Cc1ccccc1)C(=O)Oc1c(Cl)c(Cl)c(Cl)c(Cl)c1Cl (stereo not drawn)" result="> 100 µM"

Input CC1CC/C(=C\c2ccc(F)cc2)C2=C1C(c1ccc(F)cc1)N1C(=O)CSC1=N2 (stereo not drawn) . Output TGI: 60.6 µM

Please fill in: TGI reported for "NNC(=O)Nc1nc2ccc(NN)cc2[nH]1" = 32.3 µM

TGI in this record for COC(C)(C)[C@@H](O)[C@H](O)C[C@H](C)C1=C2CC[C@@H]3[C@@]4(C)CC[C@@H](OC(C)=O)C(C)(C)[C@@H]4C[C@@H](OC4OC(COC(C)=O)C(O)C(O)C4O)[C@@]3(C)[C@]2(C)CC1 (stereo partly drawn) : 23.9 µM

Values compiled from PubChem BioAssay (NCI).
